Test: bioavailability of IP3 in pigs: blood concentration of IP3 and AUC after intravenous, intraduodenal or oral administration
Type: in vivo
Details: pig, in vivo, iv
Counter-ions that a name gives are not always drawn.
MEASURED_ATTRIBUTE: concentration at 0.5 h

>>> df
                                   compound  reading
0  O=P(O)(O)O[C@@H]1[C@H](OP(=O)(O)O)[C@H](O)[C@@H](O)[C@H](O)[C@H]1OP(=O)(O)O [sodium salt]  47.5 µM

----------
Experiment: bioavailability of IP3 in pigs: blood concentration of IP3 and AUC after intravenous, intraduodenal or oral administration
Assay type: in vivo
Settings: pig, in vivo, po
Counter-ions that a name gives are not always drawn.
MEASURED_ATTRIBUTE: concentration at 2 h (nM)

>>> df
                                   compound  reading
0  O=P(O)(O)O[C@@H]1[C@H](OP(=O)(O)O)[C@H](O)[C@@H](O)[C@H](O)[C@H]1OP(=O)(O)O [sodium salt]      200

The values you see were collected from patent US5614510A.
